- assay-target: T1, O3
- T1 chain: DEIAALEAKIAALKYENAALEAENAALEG
- protocol-summary: two-hybrid library CCNG1;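 further: natural log of median RNA to DNA barcode read ratio; higher means stronger binding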
endpoint-label: interaction score

{"binder": "DKNAALKAENAALEYEIAALEAEIAALEG [O1]", "val": -2.08}
{"binder": "DEIAALEAENAALEYKIAALKAENAALEG [O15]", "val": -2.17}
{"binder": "DEIAALEAKIAALKYENAALEAENAALEG [O3]", "val": -2.29}
{"binder": "DENAALEAKNAALKYKIAALKAKIAALKG [O2]", "val": -1.84}
